# Test system: Ba/F3 JAK1
# test.method.notes: Ba/F3 cell proliferation analysis (CellTiter-Glo), JAK1
# Assay type: cell-based, murine
# cond: Mus musculus, BaF3; Ba/F3 cells, 72 hours at 37° C., cell viability
measured.quantity: IC50 (nM)

- C=CC(=O)Nc1cccc(CNc2nc(Nc3ccc(N4CCN(CCCCNC(=O)CC5[C@H]6C[C@@H]7C[C@@H](C[C@H]5C7)C6)CC4)cc3)ncc2Cl)c1 (some centres unmarked) [Compound 4]: 252
- C=CC(=O)Nc1cccc(CNc2nc(Nc3cnn(C4CCN(CCNC(=O)CC5[C@H]6C[C@@H]7C[C@@H](C[C@H]5C7)C6)CC4)c3)ncc2Cl)c1 (some centres unmarked) [Compound 7]: 954
- C=CC(=O)Nc1cccc(CNc2nc(Nc3ccc(N4CCN(CCCNC(=O)CC5[C@H]6C[C@@H]7C[C@@H](C[C@H]5C7)C6)CC4)cc3)ncc2Cl)c1 (some centres unmarked) [Compound 3]: 1120

1. C=CC(=O)Nc1cccc(CNc2nc(Nc3cnn(CCN4CCN(C(=O)CC5[C@H]6C[C@@H]7C[C@@H](C[C@H]5C7)C6)CC4)c3)ncc2Cl)c1 (some centres unmarked) [Compound 5]
2. C=CC(=O)Nc1cccc(CNc2nc(Nc3cnn(C4CCN(C(=O)CC5[C@H]6C[C@@H]7C[C@@H](C[C@H]5C7)C6)CC4)c3)ncc2Cl)c1 (some centres unmarked) [Compound 6]
Lab note: check whether 1 or 2 has the lower measured IC50. Let me know the label of the one you choose.
1
(1: 1110 nM, 2: 2080 nM)

----------
# System: Ba/F3 JAK2
# test.method.notes: Ba/F3 cell proliferation analysis (CellTiter-Glo), JAK2
# Format: cell-based, murine
# cond: Mus musculus, BaF3; Ba/F3 cells, 72 hours at 37° C., cell viability
measured.quantity: IC50 (nM)

- C=CC(=O)Nc1cccc(CNc2nc(Nc3cnn(C4CCN(CCNC(=O)CC5[C@H]6C[C@@H]7C[C@@H](C[C@H]5C7)C6)CC4)c3)ncc2Cl)c1 (stereo partly drawn): 1440

P. C=CC(=O)Nc1cccc(CNc2nc(Nc3cnn(C4CCN(C(=O)CC5[C@H]6C[C@@H]7C[C@@H](C[C@H]5C7)C6)CC4)c3)ncc2Cl)c1 (stereo partly drawn)
Q. C=CC(=O)Nc1cccc(CNc2nc(Nc3ccc(N4CCN(CCCNC(=O)CC5[C@H]6C[C@@H]7C[C@@H](C[C@H]5C7)C6)CC4)cc3)ncc2Cl)c1 (stereo partly drawn)
Endpoint returns whichever of P and Q has the numerically higher IC50. Kindly state the label of the option you pick.
P

----------
# System: Ba/F3 JAK3
# test.method.notes: Ba/F3 cell proliferation analysis (CellTiter-Glo), JAK3
# Type: cell-based, murine
# cond: Mus musculus, BaF3, 72 h, Ba/F3 cells, 72 hours at 37° C., cell viability
measured.quantity: IC50 (nM)

// below: answered molecules
- C=CC(=O)Nc1cccc(CNc2nc(Nc3cnn(C4CCN(C(=O)CC5[C@H]6C[C@@H]7C[C@@H](C[C@H]5C7)C6)CC4)c3)ncc2Cl)c1 (some centres unmarked): 38
- C=CC(=O)Nc1cccc(CNc2nc(Nc3ccc(N4CCN(CCCNC(=O)CC5[C@H]6C[C@@H]7C[C@@H](C[C@H]5C7)C6)CC4)cc3)ncc2Cl)c1 (some centres unmarked): 72.7
- C=CC(=O)Nc1cccc(CNc2nc(Nc3cnn(C4CCN(CCNC(=O)CC5[C@H]6C[C@@H]7C[C@@H](C[C@H]5C7)C6)CC4)c3)ncc2Cl)c1 (some centres unmarked): 105

a. C=CC(=O)Nc1cccc(CNc2nc(Nc3cnn(CCN4CCN(C(=O)CC5[C@H]6C[C@@H]7C[C@@H](C[C@H]5C7)C6)CC4)c3)ncc2Cl)c1 (some centres unmarked)
b. C=CC(=O)Nc1cccc(CNc2nc(Nc3ccc(N4CCN(CCCCNC(=O)CC5[C@H]6C[C@@H]7C[C@@H](C[C@H]5C7)C6)CC4)cc3)ncc2Cl)c1 (some centres unmarked)
Could you determine which record has the numerically smaller IC50? Candidates: a and b # reply format: chosen label
b
(b: 64.8 nM, a: 94 nM)

----------
# Test system: Ba/F3 JAK3
# test.method.notes: Ba/F3 cell proliferation analysis (CellTiter-Glo), JAK3
# Type: cell-based, murine
# cond: Ba/F3 cells, 72 hours at 37° C., cell viability; listed as compound 2
measured.quantity: IC50 (nM)
Quick reminder: number only, in nM, skip the unit.

Give its IC50 value. Item: C=CC(=O)Nc1cccc(CNc2nc(Nc3ccc(N4CCN(CCCNC(=O)CC5[C@H]6C[C@@H]7C[C@@H](C[C@H]5C7)C6)CC4)cc3OC)ncc2Cl)c1 (stereo partly shown) [Compound 2]
45
